Documented EC50 (read off the curve) across a set of binders
Target: T1, baboon EL (baboon)
T1 construct: Heparin extract
Assay: ELISA: antibody captured on anti-mouse IgG-Fc plate, EL heparin extract added, detection with biotin anti-C2-tag antibody and HRP-streptavidin, A450

Please review the following examples before continuing.
>>> val("13B3 (antibody, mouse IgG2a, V domains shown, mouse IgG2a from hybridoma; also called 13B3 (mouse mAb)) VH: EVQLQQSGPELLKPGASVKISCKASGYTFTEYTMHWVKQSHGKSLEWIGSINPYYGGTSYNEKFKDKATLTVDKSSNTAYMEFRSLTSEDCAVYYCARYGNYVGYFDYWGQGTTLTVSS VL: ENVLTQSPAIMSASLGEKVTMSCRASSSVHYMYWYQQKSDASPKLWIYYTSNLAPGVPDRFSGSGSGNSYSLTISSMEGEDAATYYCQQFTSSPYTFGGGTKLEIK")
"~0.02 µg/mL"
>>> val("23H8 (antibody, mouse IgG2a, V domains shown, mouse IgG2a from hybridoma; also called 23H8 (mouse mAb)) VH: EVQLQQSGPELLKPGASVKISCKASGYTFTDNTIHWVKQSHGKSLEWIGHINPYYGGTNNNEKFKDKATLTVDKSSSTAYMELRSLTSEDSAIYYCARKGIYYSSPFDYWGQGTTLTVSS VL: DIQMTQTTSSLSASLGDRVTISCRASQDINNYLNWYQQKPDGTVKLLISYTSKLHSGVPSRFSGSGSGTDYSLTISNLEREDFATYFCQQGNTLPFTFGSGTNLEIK")
"~0.02 µg/mL"
>>> val("7D4 (antibody, mouse IgG1, V domains shown, mouse IgG1 from hybridoma) VH: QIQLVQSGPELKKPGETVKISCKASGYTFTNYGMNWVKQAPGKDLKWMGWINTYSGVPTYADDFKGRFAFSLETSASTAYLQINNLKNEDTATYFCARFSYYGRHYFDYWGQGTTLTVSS VL: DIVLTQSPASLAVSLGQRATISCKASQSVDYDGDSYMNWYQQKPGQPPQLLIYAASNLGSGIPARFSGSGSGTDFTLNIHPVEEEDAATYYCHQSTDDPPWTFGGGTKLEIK")
"~0.009 µg/mL"

IN: Quick one: EC50 (read off the curve) of 53A11 (antibody, mouse IgG2a, V domains shown, mouse IgG2a from hybridoma; also called 53A11 (mouse mAb)) VH: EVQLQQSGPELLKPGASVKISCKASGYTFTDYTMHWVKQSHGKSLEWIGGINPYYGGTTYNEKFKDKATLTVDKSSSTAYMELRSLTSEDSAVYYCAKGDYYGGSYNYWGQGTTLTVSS VL: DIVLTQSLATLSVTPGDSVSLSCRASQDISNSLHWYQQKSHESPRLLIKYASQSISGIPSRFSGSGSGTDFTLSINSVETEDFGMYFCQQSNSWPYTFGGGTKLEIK ?
OUT: ~0.02 µg/mL

Hey, just so you know, these numbers are from patent US20200071424A1.
